# System: SF-268 CNS
# Assay Overview: NCI tumour cell line growth inhibition, 48 h; in the data active means GI50 below about 0.43 µM; inactive means the rest
Assign a class; possible classes are active, inactive

Test call for this compound, please: O=C1c2ccccc2S(=O)(=O)N1CSC(=S)N1CCOCC1
inactive

Test call for this compound, please: O=S(=O)(Nc1ccc2ccccc2c1)N1CCCCC1
inactive

Test call for this compound, please: CC(C)NCCCNc1c2ccccc2nc2cccc([N+](=O)[O-])c12
active

Test call for this compound, please: CCN(CC)C(=S)SS(=O)(=O)c1ccc(N)cc1
inactive

Test call for this compound, please: COc1cc(-c2cc(-c3nc4ccc(F)cc4[nH]3)[nH]n2)cc(OC)c1OC
inactive

---

# System: SNB-19 CNS
# Assay Overview: NCI tumour cell line growth inhibition, 48 h
Consider the following molecules and their measured TGI readings.

# annotated cases, reported TGI shown
What measured TGI goes with O=Cc1cn(Cc2ccccc2)c2ccccc12 ?
> 100 µM

What measured TGI goes with CCN(CC)CCn1ncc2c(N)ncnc21 ?
> 100 µM

Others:
What measured TGI goes with Cc1cccc(-n2cnc3cc(C(=O)N4CCCCC4)ccc32)c1 ?
> 100 µM

What measured TGI goes with CCCCCCCC/C=C/CCCCCCCC(=O)N(O)C1CC(n2cc(C)c(=O)[nH]c2=O)OC1CO (stereo unspecified) ?
25.5 µM

---

# Test system: UACC-62 melanoma
# Assay Overview: NCI tumour cell line growth inhibition, 48 h
Property Label: TGI

# annotated cases, reported TGI shown
What measured TGI goes with COc1ccc(CCc2nc3cc(-c4c(C)noc4C)ccc3n2CCN2CCOCC2)cc1 ?
> 100 µM

What measured TGI goes with NC(N)=NCCN1CCCCCc2ccccc21 ?
> 10 µM

What measured TGI goes with CCOC(=O)C(/C(=N/NC(=O)OC)C(=O)Nc1ccc(C(C)=O)cc1)c1cnc2ccccc2n1 (stereo not given) ?
> 100 µM

What measured TGI goes with O=C(O)CCC1(C(=O)O)CCC(=O)c2ccccc21 (stereo not given) ?
> 100 µM

Others:
What measured TGI goes with Cc1ccccc1Cn1nc2ccccc2cc1=O ?
> 100 µM

What measured TGI goes with CCNCCNc1cc(-c2ccc(Cl)c(Cl)c2)c(C#N)c2nc3ccccc3n12 ?
3.56 µM

What measured TGI goes with COc1ccc2c(c1OC)C(=O)OC2C1c2c(c(N)c3c(c2OC)OCO3)CCN1C (stereo not given) ?
> 100 µM

What measured TGI goes with O=S(=O)(Nc1nc2ccccc2n1S(=O)(=O)c1ccccc1)c1ccccc1 ?
> 100 µM

What measured TGI goes with c1ccc2c(c1)N[C@@H]1c3[nH]c4ccccc4c3CC[C@H]21 ?
31.6 µM

What measured TGI goes with O=C(OC1C(Oc2ccccc2COC(=O)C2(O)C=CCCC2=O)OC(CO)C(O)C1O)c1ccccc1 (stereo not given) ?
> 100 µM

---

# System: A498 renal
# Assay Overview: NCI tumour cell line growth inhibition, 48 h
Property Label: TGI

What measured TGI goes with COc1cc(C(=O)O[C@H]2CCC3CCC2N3C)cc(OC)c1OC (stereo partly drawn) ?
> 100 µM

What measured TGI goes with CCOC(=O)C(C(=O)OCC)C1C=CCC2c3ccccc3COCC21 (stereo not drawn) ?
> 100 µM

Consider the record given below.
What measured TGI goes with CCOC(=O)c1ccc(N=Cc2ccc(N(CCC#N)CCC#N)cc2)cc1 ?
> 100 µM

---

# System: SNB-19 CNS
# Assay Overview: NCI tumour cell line growth inhibition, 48 h; in the data active = GI50 below about 0.43 µM; inactive = the rest
Assign a class; possible classes are 1 (yes) (active), 0 (no) (inactive)

Take a look at these entries with their results.
Test call for this compound, please: C#CC#CC#CC#CC#CC#CC#CC#CC[C@@H]1OC[C@H](COC(=O)O[C@@H](C(=O)O[C@H]2C[C@@]3(O)[C@@H](OC(=O)c4ccccc4)[C@@H]4[C@]5(OC(C)=O)CO[C@@H]5C[C@H](O)[C@@]4(C)C(=O)[C@H](OC(C)=O)C(=C2C)C3(C)C)[C@@H](NC(=O)c2ccccc2)c2ccccc2)O1
0 (no)

Test call for this compound, please: COc1cc(-c2cc(-c3nc4ccc(F)cc4[nH]3)[nH]n2)cc(OC)c1OC
0 (no)

Test call for this compound, please: CC(C)NCCCNc1c2ccccc2nc2cccc([N+](=O)[O-])c12
1 (yes)

Test call for this compound, please: O=Cc1cn(Cc2ccccc2)c2ccccc12
0 (no)

Test call for this compound, please: Fc1ccc(-c2ncn(C3CCNCC3)c2-c2ccnc(Oc3cccc(C(F)(F)F)c3)n2)cc1
0 (no)

Others:
Test call for this compound, please: O=c1cc(/C=C/c2ccc(O)c(O)c2)cc(/C=C/c2ccc(O)c(O)c2)o1
0 (no)

Test call for this compound, please: COc1ccc(CCc2nc3cc(-c4c(C)noc4C)ccc3n2CCN2CCOCC2)cc1
0 (no)

Test call for this compound, please: CCCCCCC(O)(c1ccc(F)cc1)C(CN1CCOCC1)c1ccccc1 (stereo not drawn)
0 (no)

---

# Test system: SK-MEL-2 melanoma
# Assay Overview: NCI tumour cell line growth inhibition, 48 h
Consider the following compounds and their measured TGI readings.

# annotated cases, reported TGI shown
What measured TGI goes with C=C1CC[C@]2(C)[C@H](CC[C@@]34C[C@@H](CC[C@H]32)[C@@H](C(=O)O)C4)C1(C)C ?
> 12.5 µM

What measured TGI goes with CCSC1=CC(Cc2ccc(OC)cc2)N(C(=O)OC)C1 (centres undefined) ?
> 100 µM

What measured TGI goes with O=C1c2ccccc2S(=O)(=O)N1CSC(=S)N1CCOCC1 ?
> 100 µM

Consider the record given below.
What measured TGI goes with CC1(C)OCC(C2OC(OC(=O)c3ccc(C(F)(F)F)cc3)C3OC(C)(C)OC23)O1 (centres undefined) ?
> 77.5 µM

---

# System: EKVX NSCLC
# Assay Overview: NCI tumour cell line growth inhibition, 48 h
Property Label: TGI (µM)
The response must be a number in µM with no trailing unit.

What measured TGI goes with O=S(=O)(Nc1ccc2ccccc2c1)N1CCCCC1 ?
41

What measured TGI goes with CCC(C)CN=C(N)c1ccc(N2CCN(c3ccc(C(N)=NCC(C)CC)cc3)CC2)cc1 (stereo unspecified) ?
23.3

Others:
What measured TGI goes with COc1cc2c3c(n(CCCN)c(=O)c2cc1OC)-c1ccc(N(C)C)cc1C3=O ?
32

---

# Tested on: U251 CNS
# Assay Overview: NCI tumour cell line growth inhibition, 48 h
Consider the following compounds and their measured TGI readings.

What measured TGI goes with O=C(CCC1CCCCC1)NCc1ccc(C(=O)O)cc1 ?
> 100 µM

What measured TGI goes with Cc1oc2c(cc(O)c3ccccc32)c2cccc1-2 ?
> 100 µM

What measured TGI goes with COC(=O)c1ccc(C2SC(C)C(=O)N2NC(=O)C(O)c2ccccc2)cc1 (stereo unspecified) ?
> 100 µM

What measured TGI goes with NC(N)=NCCN1CCCCCc2ccccc21 ?
> 10 µM

What measured TGI goes with O=C(Cc1cc(=O)oc2cc(O)ccc12)N/N=C/c1ccc(N(CCCl)CCCl)cc1 ?
34.1 µM

Others:
What measured TGI goes with CCOP(=O)(OCC)C(C)(C)OC(=O)NC(F)(F)F ?
> 100 µM

What measured TGI goes with CCOc1ccc(C2Oc3c(cccc3OC)C=C2[N+](=O)[O-])cc1OCC (stereo unspecified) ?
12.9 µM

What measured TGI goes with CC(CO)CCC(O)C(C)(O)C1CCC2(O)C3=CC(=O)C4CC(O)C(O)CC4(C)C3CCC12C (stereo unspecified) ?
> 100 µM

What measured TGI goes with CN1CCC(CN2c3ccccc3Sc3ccccc32)C1 (stereo unspecified) ?
26.6 µM

What measured TGI goes with COC(=O)C(=O)C(CC(=O)Nc1c(C)cccc1C)C(=O)OC (stereo unspecified) ?
> 100 µM

What measured TGI goes with CCN(CC)C(=S)SS(=O)(=O)c1ccc(N)cc1 ?
> 100 µM

What measured TGI goes with O=C(NCCn1ccnn1)Nc1ccccc1 ?
> 100 µM

What measured TGI goes with CN(C)[C@@H]1C(=O)C(C(=O)NCN2CCN(C(=N)N=C(N)N)CC2)=C(O)[C@@]2(O)C(=O)C3=C(O)c4c(O)cccc4[C@@](C)(O)[C@H]3C[C@@H]12 ?
0.809 µM

What measured TGI goes with CCNC(=O)N1CCc2c(Cl)c3c(c(OC)c2[C@@H]1[C@H]1OCc2c1ccc(OC)c2OC)OCCO3 ?
37.5 µM

What measured TGI goes with CN(C)CCNC(=O)C1COc2cc(-c3cc(=O)c4ccccc4o3)ccc2O1 (stereo unspecified) ?
40.3 µM

What measured TGI goes with c1ccc2c(c1)N[C@@H]1c3[nH]c4ccccc4c3CC[C@H]21 ?
27.2 µM

What measured TGI goes with CC(=O)OC1COC(n2nc(N)nc2C)C(OC(C)=O)C1OC(C)=O (stereo unspecified) ?
> 100 µM

What measured TGI goes with CCOC(=O)C(/C(=N/NC(=O)OC)C(=O)Nc1ccc(C(C)=O)cc1)c1cnc2ccccc2n1 (stereo unspecified) ?
> 100 µM

What measured TGI goes with NC(=O)/C(=N\NC(=O)c1cc2ccccc2cc1O)C1C(=O)N(c2ccccc2)N=C1N (stereo unspecified) ?
> 100 µM

What measured TGI goes with CC1(c2ccc(Cl)cc2)NC(=NCCO)c2ccccc21 (stereo unspecified) ?
> 100 µM

What measured TGI goes with CCNCCNc1cc(-c2ccc(Cl)c(Cl)c2)c(C#N)c2nc3ccccc3n12 ?
2.15 µM

What measured TGI goes with [N-]=[N+]=Nc1ncnc2c1sc(=S)n2-c1ccccc1 ?
> 100 µM
